target: Virion infectivity factor (Human immunodeficiency virus type 1 group M subtype B (isolate BH10)) + Virion infectivity factor (Human immunodeficiency virus type 1 group M subtype B (isolate BRU/LAI)) + Virion infectivity factor (Human immunodeficiency virus type 1 group M subtype B (isolate PCV12)) + Virion infectivity factor (Human immunodeficiency virus type 1 group M subtype B (isolate HXB2)) + DNA dC->dU-editing enzyme APOBEC-3G (Homo sapiens) (UniProt P69720+P69721+P69722+P69723+Q9HC16); assay: inhibitors of Vif binding to APOBEC3G peptide, primary screen, biochemical, TR-FRET, GST-Vif 1-94, biotin-A3G peptide, dose response retest (AID 1117319); settings: hits give high values;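 also: Vif residues 1-94 fused to GST binding biotinylated APOBEC3G peptide 110-148; 0% = full assay without inhibitor and 100% = GST in place of GST-Vif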
Hit rate of the full screen: of about 260,000 compounds, about 1,500 (0.58%) were called active. Not shown: some 5% with an inconclusive outcome. These entries were drawn from the full list. Measured potencies and affinities stand elsewhere.
property_name: inhibition (%)
One number for each entry, in %.

Known results for compounds:
- COc1cc(C(=O)N/N=C/c2ccc(OC)c(CN3CCN(c4ccc(F)cc4)CC3)c2)ccc1O: -4.76
- O=C(Nc1ccc(Br)cn1)c1cccc(C(=O)Nc2ccc(Br)cn2)c1: -16
- COc1ccc(/C=N/NC(=O)c2ccccc2)cc1CN1CCN(c2ccc(F)cc2)CC1: 1.7
- CCCCCCCCS(=O)CCC(=O)O (stereo unspecified): 11.3

Could I get inhibition for every one of these entries?
1. CCOC(=O)c1cc2c(C)n(-c3ccc(OCC)cc3)c(C)c2ccc1=O
2. CC1=C(C(=O)OCc2ccccc2)C(c2ccccc2Br)NC(=O)N1 (stereo unspecified)

1: 27.2; 2: -2.14

----------
target: Virion infectivity factor (Human immunodeficiency virus type 1 group M subtype B (isolate BH10)) + Virion infectivity factor (Human immunodeficiency virus type 1 group M subtype B (isolate BRU/LAI)) + Virion infectivity factor (Human immunodeficiency virus type 1 group M subtype B (isolate PCV12)) + Virion infectivity factor (Human immunodeficiency virus type 1 group M subtype B (isolate HXB2)) + DNA dC->dU-editing enzyme APOBEC-3G (Homo sapiens) (UniProt P69720+P69721+P69722+P69723+Q9HC16); experiment: inhibitors of Vif binding to APOBEC3G peptide, primary screen, biochemical, TR-FRET, GST-Vif 1-94, biotin-A3G peptide, dose response retest (AID 1117319); settings: hits give high values;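 also: Vif residues 1-94 fused to GST binding biotinylated APOBEC3G peptide 110-148; 0% = full assay without inhibitor and 100% = GST in place of GST-Vif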
Screen size: about 260,000 compounds; about 1,500 (0.58%) were called active. Not shown: some 5% with an inconclusive outcome. A selection follows. Entries with a potency or affinity are not part of this list.
property_name: inhibition (%)
One number for each entry, in %.

- S=c1[nH]nc(NC2CCCCC2)s1: 2.41
- CCOc1ccc(-c2nc(CSc3nnc(N)s3)cs2)cc1: -2.32
- CC(=O)Nc1ccc(S(=O)(=O)NCC(=O)OCC(=O)NCc2ccco2)cc1: 7.01

Go through the list and state inhibition for each entry.
1. Cc1cccnc1NC(=O)c1ccc(S(=O)(=O)N2CCCCCC2)cc1
2. [O-][n+]1cccc2cccc(O)c21
3. COC(=O)c1cc(CSc2nc3ccccc3[nH]2)oc1C
4. Cn1c(SCCOc2ccc(Cl)cc2)nnc1-c1ccncc1
5. CC(=O)Nc1ccc(N=Cc2c(O)c3ccccc3oc2=O)cc1
6. CC1C/C(=C/c2ccccn2)C(=O)/C(=C/c2ccccn2)C1 (stereo not drawn)

1. -2.42
2. -10.3
3. -2.28
4. 3.6
5. -14.5
6. 19.4
